The origin of these recorded values is patent US20220372150A1.

target: T1, PDL1-HSA fusion protein composed of PDL1 extracellular domain and human serum albumin (human); assay: ELISA, VHH at 1 µg/mL on coated PDL1-HSA, anti-his detection
T1 construct: The entry is the whole fusion: PD-L1 extracellular domain, linker, human serum albumin; also called Human PDL1-HSA; hPDL1-HSA
T1 sequence (chain, as listed by the source limits assumed): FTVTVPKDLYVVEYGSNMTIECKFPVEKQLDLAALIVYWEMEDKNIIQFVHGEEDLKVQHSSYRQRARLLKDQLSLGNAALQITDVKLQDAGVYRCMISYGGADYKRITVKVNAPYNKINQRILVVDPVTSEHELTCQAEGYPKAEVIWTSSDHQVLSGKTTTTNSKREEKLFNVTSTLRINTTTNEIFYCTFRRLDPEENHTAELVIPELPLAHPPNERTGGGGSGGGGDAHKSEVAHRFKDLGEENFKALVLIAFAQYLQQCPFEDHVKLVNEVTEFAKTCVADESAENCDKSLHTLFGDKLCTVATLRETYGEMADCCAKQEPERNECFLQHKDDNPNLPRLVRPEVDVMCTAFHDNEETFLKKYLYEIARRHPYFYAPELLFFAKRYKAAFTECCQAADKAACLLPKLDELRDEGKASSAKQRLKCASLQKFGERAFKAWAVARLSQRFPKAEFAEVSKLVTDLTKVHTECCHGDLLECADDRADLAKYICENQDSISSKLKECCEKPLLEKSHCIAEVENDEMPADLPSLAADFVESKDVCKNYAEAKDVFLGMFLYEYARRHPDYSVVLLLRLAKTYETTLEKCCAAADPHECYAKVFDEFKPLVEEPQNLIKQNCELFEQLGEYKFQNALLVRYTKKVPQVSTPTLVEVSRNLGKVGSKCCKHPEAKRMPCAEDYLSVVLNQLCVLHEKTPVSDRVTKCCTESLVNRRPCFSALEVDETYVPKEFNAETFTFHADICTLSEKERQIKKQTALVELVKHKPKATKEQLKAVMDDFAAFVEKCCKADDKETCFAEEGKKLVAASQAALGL
Reported values of OD450 nm for individual entries
RECORDED ENDPOINT: OD450 nm (OD450 nm)

BINDER	RECORDED ENDPOINT	NUMERIC RESULT
anti-PDL1 single-domain antibody 1G10, histidine-tagged (VHH, not shown: C-terminal histidine tag) VHH: QVQLVESGGGLVQAGGSLRLSCAASGRPFITYAMGWFRQAPGKEREFVAAINWSGSITAYADSVKGRFTISRDNAKNAAYLQMNSLKPDDTAVYYCASKRTAVAPRALNDYDFWGQGTQVTVSS	OD450 nm	2.08
anti-PDL1 single-domain antibody 1D1, histidine-tagged (VHH, not shown: C-terminal histidine tag) VHH: QLQLVESGGGLVQAGGSLRLSCAASGGTFITYAMGWFRQAPGKDREFVAGISWSGSSTYYTDSVKGRFTISRDNAKNTVYLQMNSLKPGDTAVYYCAAKISGATREHLMTSYDYWGQGTQVTVSS	OD450 nm	2.01
anti-PDL1 single-domain antibody 1A7, histidine-tagged (VHH, not shown: C-terminal histidine tag) VHH: QLQLVESGGDLVQPGGSLRLSCAASGSIFSANLIDWYRQPPGKQRELVAVISSRGITSYADSVKGRFTISRDNAKNTVYLQMNSLKPEDTAVYYCHLFHTDGLGYWGQGTQVTVSS	OD450 nm	2.05
anti-PDL1 single-domain antibody 5A8, histidine-tagged (VHH, not shown: C-terminal histidine tag) VHH: QLQLVESGGGLVQPGGSLRLSCAASGGTFITYAMGWFRQAPGKDREFVAGISWSGSSTYYTDSVKGRFTISRDNAQNTVYLQMNSRKPGDTAVYYCAAKISGATREHLRTSYDYGGQGTQVTVSS	OD450 nm	2.02
anti-PDL1 single-domain antibody 6F1, histidine-tagged (VHH, not shown: C-terminal histidine tag) VHH: QLQLVESGGGLVQPGGSLRLSCAASGRTFSTHSMHWFRQAPEKERVFVAAINWNGDSTYYADSVKGRFTISRDNSKNTVDLQMNNLKPEDTAVYVCAARPGAPSTIVAMLDYWGQGTQVTVSS	OD450 nm	2.05
anti-PDL1 single-domain antibody 1D7, histidine-tagged (VHH, not shown: C-terminal histidine tag) VHH: QVQLVESGGGLVQPGGSLRLSCAASGRAFLTYAMGWFRQAPGKEREFVAAISWSGSSTYYADSVKGRFTISRDNAKNMVYLQMNSLKPEDTAVYYCAAKVSGATRDHLMTTYDYWGQGTQVTVSS	OD450 nm	2.15
